System: NCI/ADR-RES ovarian
Test name: NCI-60 one-dose screen, 48 h
Measurement context: 10 µM unless noted
Compounds without any hit were thinned out: in the full panel of roughly 83,000, 20% have a hit. Activity calls are given as the source filed them. How the source made its calls: active means growth percent below 10; inactive means the rest.
Parameter call: string, one of 1 = active, -1 = inactive

Ask: Give the logged outcome of this assay for the following molecule: "Nc1nc(Nc2ccccc2)c2ncn(Cc3ccc4c(c3)OCO4)c2n1"
Result: 1

Ask: Give the logged outcome of this assay for the following molecule: O=C(O)CC1CCCCC1c1ccccc1 (centres undefined)
Result: -1

Ask: Give the logged outcome of this assay for the following molecule: "O=[N+]([O-])c1cc([N+](=O)[O-])c(NN=C(c2ccc(O)cc2)c2ccc(O)cc2)cc1Cl"
Result: 1

Ask: Give the logged outcome of this assay for the following molecule: "COc1ccc(NC(=S)NNc2ccc(-c3ccc(OC)c(OC)c3)nn2)cc1"
Result: -1

Ask: Give the logged outcome of this assay for the following molecule: "C=C(C)[C@@H]1CC[C@]2(C(=O)O)CC[C@]3(C)[C@H](CC[C@@H]4[C@@]5(C)C/C(=C/c6ccco6)C(=O)C(C)(C)[C@@H]5CC[C@]43C)[C@@H]12"
Result: 1

Ask: Give the logged outcome of this assay for the following molecule: "Cn1cc(-c2noc(C(=O)c3cn(C)c4ncccc34)n2)c2ccccc21"
Result: -1

Ask: Give the logged outcome of this assay for the following molecule: "COc1cc(C)cc2oc3oc(=N)c(C(=O)c4ccccc4)cc3c(=O)c12"
Result: -1

Ask: Give the logged outcome of this assay for the following molecule: O=C1NC(=O)C(Cc2ccc(OCc3ccc(-c4cc(F)c(F)c(F)c4)cc3)cc2)S1 (centres undefined)
Result: -1

Ask: Give the logged outcome of this assay for the following molecule: "CCCc1cc2cc(-n3nc(C)c4c3CC(C)(C)CC4=O)cc(NC3CCSCC3)c2c(=O)[nH]1"
Result: -1

Ask: Give the logged outcome of this assay for the following molecule: CCC(C)[C@H](NC(=O)NC(=O)NC(=O)CI)C(=O)OC (some centres undefined)
Result: -1

Ask: Give the logged outcome of this assay for the following molecule: "O=C(Nc1ccc(F)cc1)c1ccccc1"
Result: -1

Ask: Give the logged outcome of this assay for the following molecule: "O=S(=O)(c1ccc(N/N=C\c2ccccc2Cl)cc1)c1ccc(N/N=C/c2ccccc2Cl)cc1"
Result: -1

Ask: Give the logged outcome of this assay for the following molecule: CCN(CC)CCSC(=O)C(O)(c1ccccc1)C1CCCC1 (centres undefined)
Result: -1

Ask: Give the logged outcome of this assay for the following molecule: "Cn1cc(-c2noc(-c3cn(C)c4ncccc34)n2)c2cc(Cl)ccc21"
Result: -1

Ask: Give the logged outcome of this assay for the following molecule: "COCc1nc2ccccc2[nH]1"
Result: -1

Ask: Give the logged outcome of this assay for the following molecule: "C=C(C)[C@@H]1CC[C@]2(C(N)=O)CC[C@]3(C)[C@H](CC[C@@H]4[C@@]5(C)C/C(=C/c6cccnc6)C(=O)C(C)(C)[C@@H]5CC[C@]43C)[C@@H]12"
Result: -1

Ask: Give the logged outcome of this assay for the following molecule: "Cc1ccc(-c2cc(-c3ccc(C)cc3)nc(N3CCN(CCNc4ccnc5cc(Cl)ccc45)CC3)n2)cc1"
Result: 1

Ask: Give the logged outcome of this assay for the following molecule: COc1ccc2nc3c(cc2c1)C(=O)CC(C(F)(F)F)C3 (centres undefined)
Result: -1

Ask: Give the logged outcome of this assay for the following molecule: "COc1cc2c(cc1OCCCN1CCN(CCCOc3cc4c(cc3OC)C(=O)N3C[C@H](F)C[C@H]3C=N4)CC1)N=C[C@@H]1C[C@@H](F)CN1C2=O"
Result: -1
